Reference source: patent US20230373934A1

Please respond with reported IC50 for every item in the list.
- TARGET OR SYSTEM: androgen receptor (AR) (Homo sapiens, UniProt P10275, T878A)
- Construct: endogenous in cells
- Sequence (P10275 whole entry T878A): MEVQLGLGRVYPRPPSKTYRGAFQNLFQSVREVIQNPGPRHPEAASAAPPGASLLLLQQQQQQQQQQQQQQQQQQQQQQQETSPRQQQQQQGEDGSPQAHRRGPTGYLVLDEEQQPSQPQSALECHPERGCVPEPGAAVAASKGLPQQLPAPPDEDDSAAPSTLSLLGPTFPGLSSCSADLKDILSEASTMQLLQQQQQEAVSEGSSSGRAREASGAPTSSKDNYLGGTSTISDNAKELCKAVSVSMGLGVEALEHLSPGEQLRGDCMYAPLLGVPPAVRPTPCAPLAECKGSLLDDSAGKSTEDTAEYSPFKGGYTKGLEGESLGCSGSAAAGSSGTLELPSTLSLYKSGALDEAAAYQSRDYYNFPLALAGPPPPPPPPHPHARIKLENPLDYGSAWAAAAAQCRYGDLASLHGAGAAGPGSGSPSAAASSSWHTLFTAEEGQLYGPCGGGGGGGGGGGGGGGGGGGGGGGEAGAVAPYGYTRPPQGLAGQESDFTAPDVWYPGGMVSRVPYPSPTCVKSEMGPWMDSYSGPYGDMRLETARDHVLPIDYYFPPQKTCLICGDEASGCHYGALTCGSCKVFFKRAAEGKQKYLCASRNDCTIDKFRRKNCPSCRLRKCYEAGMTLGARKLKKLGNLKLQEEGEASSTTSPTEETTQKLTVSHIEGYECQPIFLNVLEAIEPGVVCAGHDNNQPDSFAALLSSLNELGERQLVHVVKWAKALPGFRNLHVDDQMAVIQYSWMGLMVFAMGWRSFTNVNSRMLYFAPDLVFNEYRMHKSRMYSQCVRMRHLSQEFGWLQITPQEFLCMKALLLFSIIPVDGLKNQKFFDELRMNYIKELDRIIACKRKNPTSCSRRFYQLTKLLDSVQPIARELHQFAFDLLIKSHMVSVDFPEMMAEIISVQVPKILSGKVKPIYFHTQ
- EXPERIMENT DESCRIPTION: Androgen-induced PSA-luciferase assay, Luciferase Assay A (LNCaP transiently transfected with PSA (6.1 kb)-luciferase reporter)
- ASSAY CONTEXT: LNCaP cells, 1 h pretreatment, R1881 (1 nM) 24 h, read-out: PSA-Luc IC50 Range
- Experimental: The PSA (6.1 kb)-luciferase reporter contains functional AREs (androgen response elements) to which AR binds in response to androgen to induce luciferase activity. […] After 24 h of incubation with R1881, the cells were harvested, and relative luciferase activities were determined (FIG. 1). […]

*Q* Record request: IC50 value, item CC(C)(c1ccc(OC[C@]2(C)C[C@@H](NS(C)(=O)=O)C2)cc1)c1cc(Cl)c(OCCCl)c(C#N)c1
*A* > 2000 nM

*Q* Record request: IC50 value, item CS(=O)(=O)Nc1cnc2cc(-c3ccc(Oc4cc(F)c(OC5CC5)c(C#N)c4)cc3)ccc2n1
*A* 500 to 2000 nM

*Q* Record request: IC50 value, item CC(C)(c1ccc(OCC23CC(NS(C)(=O)=O)(C2)C3)cc1)c1cc(Cl)c(N2CCOCC2)c(C#N)c1
*A* 500 to 2000 nM

*Q* Record request: IC50 value, item CC(C)(c1ccc(-c2ccnc(N3CC(NS(C)(=O)=O)C3)n2)cc1)c1cc(Cl)c(OCCCl)c(C#N)c1
*A* > 2000 nM

*Q* Record request: IC50 value, item CS(=O)(=O)N1CC2(CC(Oc3ccc(Oc4cc(Cl)c(OCCCl)c(C#N)c4)cc3)C2)C1
*A* 500 to 2000 nM

*Q* Record request: IC50 value, item [2H]C([2H])([2H])N(c1ccc(-c2ccc3nc(NS(C)(=O)=O)cnc3c2)cc1)c1cc(Cl)c(OCCCl)c(C#N)c1
*A* 500 to 2000 nM

*Q* Record request: IC50 value, item COC1CN(c2c(Cl)cc(C(C)(C)c3ccc(OCc4ccnc(NS(C)(=O)=O)n4)cc3)cc2C#N)C1
*A* > 2000 nM

*Q* Record request: IC50 value, item CCN(c1ccc(-c2ccc3nc(NS(C)(=O)=O)cnc3c2)cc1)c1cc(Cl)c(OCCCl)c(C#N)c1
*A* < 500 nM

*Q* Record request: IC50 value, item COc1c(Cl)cc(Oc2ccc(-c3ccc4nc(NS(C)(=O)=O)cnc4c3)cc2)cc1C#N
*A* < 500 nM

*Q* Record request: IC50 value, item CC(C)(c1ccc(-c2cnn([C@H]3C[C@H](NS(C)(=O)=O)C3)c2)cc1)c1cc(Cl)c(OCCCl)c(C#N)c1
*A* < 500 nM

*Q* Record request: IC50 value, item CC(C)(c1ccc(OC2CC3(C2)CN(S(C)(=O)=O)C3)cc1)c1cc(Cl)c(OC2CC2)c(C#N)c1
*A* 500 to 2000 nM

*Q* Record request: IC50 value, item CS(=O)(=O)NCc1ccc(-c2ccc(Oc3cc(Cl)c(OCCCl)c(C#N)c3)cc2)cn1
*A* 500 to 2000 nM

*Q* Record request: IC50 value, item CC(C)(c1ccc(CN2CC(NS(C)(=O)=O)CC(F)(F)C2)cc1)c1cc(Cl)c(OCCCl)c(C#N)c1 (centres unmarked)
*A* > 2000 nM

*Q* Record request: IC50 value, item CS(=O)(=O)NC1CCN(Cc2ccc(Oc3cc(Cl)c(OCCCl)c(C#N)c3)cc2)CC1
*A* > 2000 nM
